# test_protocol: Immunotoxin (HA22) sensitization/mitigation study. Vehicle arm (PBS) (AID 1159510)
# setup_conditions: cancer cells viability with PBS vehicle (HA22 study); series mostly up to 46.1 µM
Calls of active or inactive are those of the source. How the calls were made is not given here.
# valid calls are 1 = active, -1 = inactive; nothing else

The examples below pair each entry with its known result.
COc1cc2nc(N3CCCN(C)CC3)nc(NC3CCN(Cc4ccccc4)CC3)c2cc1OC; 1
CC(C)c1ccc2c(c1)c(SC(C)(C)C)c(CC(C)(C)C(=O)O)n2Cc1ccc(Cl)cc1; 1
CCC1(Cc2ccc(N)cc2)CCC(=O)NC1=O (stereo unspecified); -1
CN(C)CC=CC(=O)Nc1cc2c(Nc3ccc(F)c(Cl)c3)ncnc2cc1O[C@H]1CCOC1; 1
NC(=O)c1ccc(-c2nc(-c3ccc4c(c3)OCO4)c(-c3ccccn3)[nH]2)cc1; -1

Okay, now this molecule:
Incoming: Recorded call for `CO[C@H]1C=CC=C(C)C(=O)NC2=CC(=O)C(NCCN(C)C)=C(C[C@@H](C)C[C@H](OC)[C@@H](O)[C@@H](C)C=C(C)[C@@H]1OC(N)=O)C2=O` ?
Outgoing: 1

----------
# System: MKL-2
# test_protocol: qHTS assay to identify novel small-molecules to repurpose for Merkel cell carcinoma treatment (AID 1296009); further: nearly all actives have a fitted effect of over 60% in size
# setup_conditions: MCC and control cell lines, CellTiter-Glo viability, 72 h; series mostly up to 46 µM
Results filed as inconclusive are left out. Activity calls are given as the source filed them. The call rests on the fitted dose curve; in most records, active means well fitted inhibition curve with a large enough effect; inconclusive means small, poorly fitted or top-dose-only effect; inactive means flat fitted curve, though single readings scatter.
Respond using exactly one of the listed classes: YES (active), NO (inactive)

# example entries with known answers
C[C@](O)(COc1ccc(C#N)cc1)C(=O)Nc1ccc(C#N)c(C(F)(F)F)c1; NO
C[C@@H]1CC[C@@]2(OC1)O[C@H]1C[C@H]3[C@@H]4CC=C5C[C@@H](O[C@@H]6O[C@H](CO)[C@@H](O[C@@H]7O[C@@H](C)[C@H](O)[C@@H](O)[C@@H]7O)[C@H](O)[C@@H]6O[C@@H]6O[C@@H](C)[C@H](O)[C@@H](O)[C@@H]6O)CC[C@]5(C)[C@@H]4CC[C@]3(C)[C@@H]1[C@H]2C; YES
O=[N+]([O-])c1c(Cl)c(Cl)cc(Cl)c1Cl; NO
CC1(C)CC/C(=C/c2ccc(Cl)cc2)C1(O)Cn1cncn1 (stereo unspecified); NO
C[C@]12COC(=O)C[C@@H]1CC[C@@H]1[C@H]2CC[C@@]2(C)[C@H]1CC[C@]2(C)O; NO

Incoming: Write down the call the test reported for this compound. Item: `CC(C)(O)C=CC(=O)[C@](C)(O)[C@H]1[C@H](O)C[C@]2(C)[C@@H]3CC=C4[C@@H](C=C(O)C(=O)C4(C)C)[C@]3(C)C(=O)C[C@@]12C`
Outgoing: YES

Incoming: And CCCCCCCCCC(CC)c1ccc(S(=O)(=O)O)cc1 (stereo unspecified) ?
Outgoing: NO

Incoming: Record: `CC(=O)N(C)c1cccc(-c2ccnc3c(C(=O)c4cccs4)cnn23)c1`
Outgoing: NO

----------
# test_protocol: Quantitative High-Throughput drug screen in 47 multiple myeloma cell lines against the NCATS MIPE library collection: PE2_PLB cell viability assay (AID 1919869); further: nearly all actives have a fitted effect of over 35% in size
# setup_conditions: PE2_PLB myeloma cells viability, ATP luminescence, 48 h; series mostly up to 45.8 µM
Inconclusive results are not listed. Activity calls are given as the source filed them. Calls come from the whole dose curve; as a rule, active = well fitted cell-killing curve with a large enough effect; inconclusive = small, poorly fitted or top-dose-only effect, or effect the other way; inactive = no such curve, though single readings can be large or run the other way.
Use one of these outcomes when replying: yes (1) = active, no (0) = inactive

C[C@@H]1CC[C@H]2[C@@H](C)C(=O)O[C@@H]3O[C@@]4(C)CC[C@H]1[C@]32OO4; yes (1)
C[C@]12COC(=O)C[C@@H]1CC[C@@H]1[C@H]2CC[C@@]2(C)[C@H]1CC[C@]2(C)O; no (0)
COc1cc2cc(c1Cl)N(C)C(=O)C[C@H](OC(=O)C(C)C)[C@]1(C)O[C@H]1[C@H](C)[C@@H]1C[C@@](O)(NC(=O)O1)[C@H](OC)C=CC=C(C)C2; no (0)

Incoming: In this assay, the call recorded for CO[C@H]1CCC(O[C@H]2C[C@H]([C@]3(C)CC[C@]4(C[C@H](O)[C@@H](C)[C@@H]([C@@H](C)C=C(C)C(=O)[C@H](C)C[C@H](C)C(=O)O)O4)O3)O[C@]3(O[C@@H]([C@H]4O[C@@](O)(CO)[C@H](C)C[C@H]4C)C[C@H]3C)[C@H]2C)O[C@H]1C (some centres not stated) was what?
Outgoing: yes (1)

Incoming: Check NC1CC1c1ccccc1 (configuration not stated) too.
Outgoing: no (0)

Incoming: Would you kindly repeat that for `C[C@@H]1[C@H](O)[C@@H](C)C=CC=CCCC=CC=CC=CC=C[C@H](O[C@H]2O[C@@H](C)[C@H](O)[C@@H](N)[C@@H]2O)CC2O[C@](O)(C[C@@H](O)[C@H](O)CC[C@@H](O)C[C@@H](O)C[C@@H](O)CC(=O)O[C@H]1C)C[C@H](O)[C@H]2C(=O)O` ?
Outgoing: no (0)

Incoming: Similarly, C#CC1(O)CCC2C3CCC4=CC(=O)CCC4(C)C3CCC21C (configuration not stated) ?
Outgoing: no (0)

Incoming: Let us now turn to `CC(=O)OCC1=C(C(=O)O)N2C(=O)[C@@H](N)[C@@H]2SC1`
Outgoing: no (0)

Incoming: And `CC(C)(O)C=CC(=O)[C@](C)(O)[C@H]1[C@H](O)C[C@]2(C)[C@@H]3CC=C4[C@@H](C=C(O)C(=O)C4(C)C)[C@]3(C)C(=O)C[C@@]12C` ?
Outgoing: yes (1)

Incoming: Another compound to look at: CCOP(=O)(OCC)C(C)NC(=O)N(CCCl)N=O (configuration not stated)
Outgoing: no (0)

Incoming: # repeat for C=C[C@@H]1CN2CCC1C[C@@H]2[C@@H](O)c1ccnc2ccccc12 (some centres not stated)
Outgoing: yes (1)

Incoming: // same read-out, input: `CCN1CCN(C(=O)Cc2ccc(Nc3ncc(F)c(Nc4ccc(C(=O)Nc5ccccc5Cl)cc4)n3)cc2)CC1`
Outgoing: yes (1)

----------
# system_tested: M-phase phosphoprotein 8 (Homo sapiens) (UniProt Q99549)
# Sequence (Q99549 whole entry, looked up): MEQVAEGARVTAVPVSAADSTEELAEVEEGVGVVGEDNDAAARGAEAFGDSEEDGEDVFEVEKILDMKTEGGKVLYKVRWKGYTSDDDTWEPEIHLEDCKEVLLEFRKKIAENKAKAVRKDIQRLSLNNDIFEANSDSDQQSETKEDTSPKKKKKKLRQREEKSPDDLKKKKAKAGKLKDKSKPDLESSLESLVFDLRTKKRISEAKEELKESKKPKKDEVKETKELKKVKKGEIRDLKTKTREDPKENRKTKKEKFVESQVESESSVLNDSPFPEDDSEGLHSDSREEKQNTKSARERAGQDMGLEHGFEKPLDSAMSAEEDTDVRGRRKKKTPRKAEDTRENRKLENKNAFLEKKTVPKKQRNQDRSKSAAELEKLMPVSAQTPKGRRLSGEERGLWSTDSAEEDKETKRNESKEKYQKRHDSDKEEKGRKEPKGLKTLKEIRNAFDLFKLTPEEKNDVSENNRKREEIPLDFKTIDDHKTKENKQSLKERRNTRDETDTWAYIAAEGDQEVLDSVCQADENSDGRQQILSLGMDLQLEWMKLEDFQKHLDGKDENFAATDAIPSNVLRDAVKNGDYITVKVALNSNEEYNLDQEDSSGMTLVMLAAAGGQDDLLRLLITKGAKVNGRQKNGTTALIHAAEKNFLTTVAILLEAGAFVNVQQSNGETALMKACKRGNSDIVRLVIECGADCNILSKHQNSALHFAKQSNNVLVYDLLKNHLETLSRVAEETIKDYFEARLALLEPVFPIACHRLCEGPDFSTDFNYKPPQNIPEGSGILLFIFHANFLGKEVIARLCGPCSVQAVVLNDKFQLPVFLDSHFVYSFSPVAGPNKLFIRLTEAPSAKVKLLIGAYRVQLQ
# test_protocol: qHTS Validation Assay for Inhibitors for MPP8 Chromodomain Interactions with Methylated Histone Tails (AID 488949);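 further: 50 nM MPP8 with 50 nM peptide preformed then compounds added for 30 min; AlphaScreen signal from MPP8 chromodomain bound to biotinylated H3K9me3 peptide; top concentration of the series differs between compounds; nearly all actives have a fitted effect of over 55% in size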
# setup_conditions: AlphaScreen MPP8 binding to H3K9me3 peptide; series mostly up to 57.1 µM
Inconclusive results are not listed. The source made the active and inactive calls. Calls come from the whole dose curve; as a rule, active = well fitted inhibition curve with a large enough effect; inconclusive = small, poorly fitted or top-dose-only effect; inactive = no such curve, though single readings can be large or run the other way.
recorded_metric: outcome

C[N+]1(C)C2CC(OC(=O)[C@H](CO)c3ccccc3)CC1C1OC12 (stereo partly drawn); inactive
S=C(NC1CCCCC1)N1CCC(c2cnc[nH]2)CC1; inactive
C[N+]1(C)C2CCC1CC(OC(=O)C(CO)c1ccccc1)C2 (stereo not drawn); inactive

----------
# test_protocol: Immunotoxin (SS1P) sensitization/mitigation study. Vehicle arm (DMEM) (AID 1159513)
# setup_conditions: cell viability with vehicle (DMEM); series mostly up to 46.1 µM
The source made the active and inactive calls. The rule behind the calls is not given here.
Pick one: active, inactive

Solved cases (3 shown):
Cc1cccc(C#Cc2ccccc2)n1; inactive
CCOc1ccn(-c2ccc(F)cc2)c(=O)c1C(=O)Nc1ccc(Oc2ccnc(N)c2Cl)c(F)c1; active
O=C(O)c1ccc(-c2cc3cccnc3c(-c3ccc4nonc4c3)n2)cc1; inactive

Attention now turns to another entry.
Incoming: Check the results log: what was the call for `O=C(O)c1ccc2cc(-c3ccc(O)c(C45CC6CC(CC(C6)C4)C5)c3)ccc2c1` ?
Outgoing: active

----------
# test_protocol: Cell Viability - LYMP1-003 - Assay at 24 hr (AID 963);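 further: plate controls were DMSO only for no effect and tetraoctylammonium bromide positive control for full effect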
# setup_conditions: LYMP1-003 lymphoblastoid cell viability; series mostly up to 92.2 µM
Activity calls are given as the source filed them. The call rests on the fitted dose curve; in most records, active means well fitted cell-killing curve with a large enough effect; inconclusive means small, poorly fitted or top-dose-only effect; inactive means flat fitted curve, though single readings scatter.
Mark one answer only. Choices: active, inactive

Incoming: Assay outcome for `c1cc2ccc3cccc4ccc(c1)c2c34` : what was it?
Outgoing: inactive

Incoming: Now this one: `C1CCC(NC2CCCCC2)CC1`
Outgoing: inactive

----------
# test_protocol: qHTS of pediatric cancer cell lines to identify multiple opportunities for drug repurposing: Primary screen for Rh41 cells (AID 1347108); further: nearly all actives have a fitted effect of over 70% in size
# setup_conditions: Rh41 rhabdomyosarcoma viability, CellTiter-Glo luminescence, 48 h; series mostly up to 46 µM
# Method: Drug repurposing or repositioning has been offered as a strategy for drug development in oncology programs. This approach has special potential for childhood cancers and other rare or orphan diseases, where the expected return on new drug development has been a disincentive to pharmaceuticals. […] We employed a titration-based paradigm (quantitative high-throughput screening or qHTS), where all compounds were tested at multiple concentrations for their effect on cell viability. […]
Records with an inconclusive call do not appear. Active and inactive are the calls of the source. Calls come from the whole dose curve; as a rule, active = well fitted cell-killing curve with a large enough effect; inconclusive = small, poorly fitted or top-dose-only effect; inactive = no such curve, though single readings can be large or run the other way.
Use one of these outcomes when replying: active, inactive

Some solved entries appear below for comparison.
CC1=NN=C(c2ccc(N)cc2)c2cc3c(cc2C1)OCO3; inactive
CC(C)[C@]12O[C@@H]1[C@@H]1O[C@]13[C@]1(O[C@H]1C[C@@H]1C4=C(CC[C@@]13C)C(=O)OC4)[C@H]2O; active
CCCCOC(=O)c1ccccc1C(=O)OCc1ccccc1; inactive
c1ccc2c(CN3CCNCC3)cccc2c1; inactive
Nc1ccc(Cl)cc1; inactive
CCN(CC)C(=O)c1ccc(C2=CC3(CCNCC3)Oc3cccc(O)c32)cc1; inactive

Incoming: Dear all, I need the recorded test outcome for `CC(C)(C)c1cc(C=C(C#N)C#N)cc(Br)c1O` , thank you.
Outgoing: inactive

Incoming: Do the same for `Cc1[nH]nc2ccc(-c3cncc(OC[C@@H](N)Cc4c[nH]c5ccccc45)c3)cc12` please
Outgoing: active

Incoming: Another compound to look at: `c1cc2ccc3cccc4ccc(c1)c2c34`
Outgoing: inactive

Incoming: Can you check CC(O)CN1CCN(CC(=O)[O-])CCN(CC(=O)[O-])CCN(CC(=O)[O-])CC1.[Gd+3] (stereo unspecified) next?
Outgoing: inactive

Incoming: Now this one: `C[C@]12COC(=O)C[C@@H]1CC[C@@H]1[C@H]2CC[C@@]2(C)[C@H]1CC[C@]2(C)O`
Outgoing: inactive
